Recorded measurements of phosphorylation enrichment, one per entry
# System: c-Abl (mouse)
# experiment_summary: phosphorylation enrichment, bacterial display (enrichment ratio); higher = better substrate or ligand; peptides without Tyr show the background;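 also: 11-residue human phosphosite peptides and single-mutation variants displayed on the E. coli surface, counted by deep sequencing, each peptide's frequency after selection divided by its frequency in the unselected input library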;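 also: frequency after pTyr selection over input frequency; kinase dosed for 20-30% of maximal phosphorylation in three min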
Could you keep your reply to the number by itself?

QQLDEYQKLLD [LMNA_Y359_E361K]	1.03
VRHRRYKHTHE [CTCF_Y343]	0.816
SFCFRYRCAAQ [SUMF1_Y344_R349Q_YF]	0.682
AIYWRYSKFFD [SH3PXD2B_Y45_R43W]	1.1

Please look at the following sequence next.
Bench note: what phosphorylation enrichment did EFISEYCGEII [EZH2_Y641] show?
0.905

###

Recorded measurements of phosphorylation enrichment, one per entry
# Tested on: Fer (mouse)
# experiment_summary: phosphorylation enrichment, bacterial display (enrichment ratio); higher = better substrate or ligand; peptides without Tyr show the background

AIYWRYSKFFD [SH3PXD2B_Y45_R43W]	0.526

Bench note: what phosphorylation enrichment did DPGVSYRTREE [PDHA1_Y301] show?
0.368

Now consider TNLVPYPCIHF [TUBA1A_Y262_R264C] and answer again.
0.517

Now consider LTAEVYFPSIK [C5orf64_Y60] and answer again.
0.963

Now consider VQVAFYTMMMN [SPATA17_Y84_YF] and answer again.
1.81

Now consider DRLAVYIDRVR [LMNA_Y45] and answer again.
0.488
